// reported IC50 for each item listed
Tested on: plasma LPA 18:1 and LPA 18:2
Assay: Human plasma ex vivo assay (LPA 18:1 / 18:2 by LC-MS/MS)
Format: biochemical
Conditions: 37° C., 2 hours, LPA 18:1, read-out: Human plasma ex vivo assay IC50 (18:1 LPA)
Answer with the number, then the unit.

Use the examples below as a reference point.
>>> result("CN(c1nc(-c2ccc(F)cc2)c(C#N)s1)c1c2c(nc3c(F)cc(N4CC5(CN(CC(=O)N6CC(O)C6)C5)C4)cc13)COC2")
"466 nM"
>>> result("CN(c1nc(-c2ccc(F)cc2)c(C#N)s1)c1c2c(nc3c(F)cc(N4CC5(CN(C(=O)[C@]6(O)CCOC6)C5)C4)cc13)[C@@H](O)CC2 (single isomer, unassigned)")
"218 nM"
>>> result("CN(c1nc(-c2ccc(F)cc2)c(C#N)s1)c1c2c(nc3c(F)cc(N4CCN(CC(=O)N5CC(C)(O)C5)CC4)cc13)[C@H](O)CC2 (single isomer, unassigned)")
"263 nM"
>>> result("CN(c1nc(-c2ccc(F)cc2)c(C#N)s1)c1c2c(nc3c(F)cc(N4CC5(CN(CC(=O)N6CC(O)C6)C5)C4)cc13)CC2")
"164 nM"
>>> result("CN(c1nc(-c2ccc(F)cc2)c(C#N)s1)c1c2c(nc3cc(F)c(N4CCN(CC(=O)N5CC(O)C5)CC4)cc13)CCC2")
"248 nM"

Challenge: Using the record for `CN(c1nc(-c2ccc(F)cc2)c(C#N)s1)c1c2c(nc3c(F)cc(N4CC5(CN(C(=O)C(C)(C)O)C5)C4)cc13)C(=O)CC2` , report its IC50.
Response given: 371 nM

----------
Target: ATX (Homo sapiens (Human), UniProt Q13822)
Assay: ATX enzyme inhibition assay (Amplex UltraRed/choline oxidase/HRP, 16:0 Lyso PC substrate)
Type: biochemical
Settings: assay buffer pH 8.5; read-out: IC50 (nM) pH 8.5
observable: IC50 (nM)
# number only, unit nM dropped from output

>>> numeric_readout("CN(c1nc(-c2ccc(F)cc2)c(C#N)s1)c1c2c(nc3c(F)cc(N4CC5(CN(C(=O)C6(O)CCOCC6)C5)C4)cc13)C(O)CC2 (stereo not drawn)")
13.3
>>> numeric_readout("CN(c1nc(-c2ccc(F)cc2)c(C#N)s1)c1c2c(nc3c(F)cc(N4CCN(CC(=O)N5CC(O)C5)CC4)cc13)COC2")
52.7
>>> numeric_readout("CN(c1nc(-c2ccc(F)cc2)c(C#N)s1)c1c2c(nc3c(F)cc(N4CC5(CN(CC(=O)N6CC[C@H](O)C6)C5)C4)cc13)C(O)CC2 (stereo partly drawn)")
97.6
>>> numeric_readout("CN(c1nc(-c2ccc(F)cc2)c(C#N)s1)c1c2c(nc3c(F)cc(N4CCN(CC(=O)N5CC(O)C5)CC4)cc13)C(=O)CC2 [Example E2]")
3.46
>>> numeric_readout("CN(c1nc(-c2ccc(F)cc2)c(C#N)s1)c1c2c(nc3c(F)cc(N4CCN(CC(=O)N5CC(F)(F)C5)CC4)cc13)CCC2")
134
>>> numeric_readout("CN(c1nc(-c2ccc(F)cc2)c(C#N)s1)c1c2c(nc3ccc(N4CCN(CC(=O)N5CC(O)C5)CC4)cc13)CCO2")
27.8

Challenge: Using the record for `CN(c1nc(-c2ccc(F)cc2)c(C#N)s1)c1c2c(nc3c(F)cc(N4CC5(CN(C(=O)[C@@H]6CCOC6)C5)C4)cc13)C(=O)CC2` , report its IC50.
Response given: 24.5

Challenge: Using the record for `C[C@H]1CN(c2cc(F)c3nc4c(c(N(C)c5nc(-c6ccc(F)cc6)c(C#N)s5)c3c2)COC4)CCN1CC(=O)N1CC(O)C1` , report its IC50.
Response given: 44.6

Challenge: Using the record for `CN(c1nc(-c2ccc(F)cc2)c(C#N)s1)c1c2c(nc3c(F)cc(N4CCC5(CCN(C(=O)[C@@H]6CCOC6)CC5)C4)cc13)CCC2` , report its IC50.
Response given: 60.6

Challenge: Using the record for `CN(c1nc(-c2ccc(F)cc2)c(C#N)s1)c1c2c(nc3ncc(N4CCN(CC(=O)N5CC(O)C5)CC4)cc13)CCC2` , report its IC50.
Response given: 23.7

Challenge: Using the record for C[C@@H]1CN(c2cc(F)c3nc4c(c(N(C)c5nc(-c6ccc(F)cc6)c(C#N)s5)c3c2)CC[C@@H]4O)CCN1CC(=O)N1CC(O)C1 (single isomer, unassigned) , report its IC50.
Response given: 21.5

Challenge: Using the record for `CN(c1nc(-c2ccc(F)cc2)c(C#N)s1)c1c2c(nc3c(F)cc(N4CC5(CN(CC(=O)N6CC(CO)C6)C5)C4)cc13)CCC2` , report its IC50.
Response given: 75

The measured values listed here are drawn from patent US20250051321A1.
